The origin of these recorded values is patent US10072023B2.

So I've got a bunch of compounds here, and I need their λ max values.
TEST DETAILS: Absorbance at photostationary state (PSS) under simulated sunlight or 365 nm light
Format: physicochemical
Design: unit not given here
RUN PARAMETERS: wavelength of maximum absorbance in the visible range, ring-closed isoform; 2.0×10^−5 M in triglyme
Answers are plain numbers.

Please review the entries below; each comes with its answer.
- SMILES NOTATION: "CCOc1ccc(-c2cc(C3=C(c4cc(-c5ccc(OCC)cc5)sc4-c4ccc(OCC)cc4)C(F)(F)C(F)(F)C3(F)F)c(-c3ccc(OCC)cc3)s2)cc1"
  λ max: 629
- SMILES NOTATION: "Oc1ccc(-c2cc(C3=C(c4cc(-c5ccc(O)cc5)sc4-c4ccc(O)cc4)C(F)(F)C(F)(F)C3(F)F)c(-c3ccc(O)cc3)s2)cc1"
  λ max: 625

Here's the next entry for you.
Can you share its λ max? I mean this compound: CC(C)CCOc1ccc(-c2cc(C3=C(c4cc(-c5ccc(OCCC(C)C)cc5)sc4-c4ccc(OCCC(C)C)cc4)C(F)(F)C(F)(F)C3(F)F)c(-c3ccc(OCCC(C)C)cc3)s2)cc1
625

###

TEST DETAILS: Solubility in indicated solvent
Assay type: physicochemical
RUN PARAMETERS: % wt soluble in triglyme
PROPERTY NAME: Solubility

Please review the entries below; each comes with its answer.
- SMILES NOTATION: "CC(C)(C)c1ccc(-c2cc(C3=C(c4cc(-c5ccc(C(C)(C)C)cc5)sc4-c4ccc(C(C)(C)C)cc4)C(F)(F)C(F)(F)C3(F)F)c(-c3ccc(C(C)(C)C)cc3)s2)cc1"
  PROPERTY NAME: "Solubility"
  RECORDED RESULT: "0.5 % wt"
- SMILES NOTATION: "CC(C)(C)c1ccc(-c2sc(-c3ccccc3)cc2C2=C(c3cc(-c4ccccc4)sc3-c3ccc(C(C)(C)C)cc3)C(F)(F)C(F)(F)C2(F)F)cc1"
  PROPERTY NAME: "Solubility"
  RECORDED RESULT: "1.5 % wt"
- SMILES NOTATION: "Cc1cc(-c2sc(C)c(C)c2C2=C(c3c(-c4cc(C)c(C)s4)sc(C)c3C)C(F)(F)C(F)(F)C2(F)F)sc1C"
  PROPERTY NAME: "Solubility"
  RECORDED RESULT: "2 % wt"
- SMILES NOTATION: "c1ccc(-c2nc(-c3cc(-c4cccs4)sc3-c3cccs3)c(-c3cc(-c4cccs4)sc3-c3cccs3)s2)cc1"
  PROPERTY NAME: "Solubility"
  RECORDED RESULT: "1 % wt"
- SMILES NOTATION: "CC(C)(C)c1ccc(-c2cc(C3=C(c4cc(-c5ccc(C(C)(C)C)s5)sc4-c4ccc(C(C)(C)C)s4)C(F)(F)C(F)(F)C3(F)F)c(-c3ccc(C(C)(C)C)s3)s2)s1"
  PROPERTY NAME: "Solubility"
  RECORDED RESULT: "<3 % wt"

Here's the next entry for you.
Can you share its Solubility? I mean this compound: COCCOCCOCCOc1ccc(-c2sc(-c3ccc(C(C)(C)C)s3)cc2C2=C(c3cc(-c4ccc(C(C)(C)C)s4)sc3-c3ccc(OCCOCCOCCOC)cc3)C(F)(F)C(F)(F)C2(F)F)cc1
>25 % wt
